experiment: viability loss with induced miR-34 in A549 – imaging, A549 dox-inducible miR-34, nuclei and caspase counts, primary screen (AID 1347080); conditions: A549 miR-34 inducible, Hoechst nuclei count, 48 h; measured here: relative caspase fold change +Dox/-Dox
Where a SMILES comes first, the peptide text is derived from it.
Assign 1 whenever fold change does not fall below 0.9; assign -1 whenever it does.

### Prompt Form field: fold change at least 0.9? Entry: C#C[C@@]1(O)CC[C@H]2[C@@H]3CCc4cc(OC)ccc4[C@@H]3CC[C@@]21C
### Response -1

### Prompt hey, is fold change for this one >= 0.9? CC(C)N(CC1OC(n2cnc3c(N)ncnc32)C(O)C1O)C1CC(CCc2nc3ccc(C(C)(C)C)cc3[nH]2)C1 (stereo not given)
### Response -1

### Prompt API: above_or_equal(metric=fold change, cutoff=0.9) for item COC(=O)C(Cc1ccccc1)NC(=O)C(N)CC(=O)O (stereo not drawn) (H-Asp-Phe-OMe; configuration not given here)
### Response -1

### Prompt Check this compound for fold change at or above 0.9: CC(C)(C)c1cn(C2CCN(C(=O)c3cnc4ccccc4n3)CC2)nn1
### Response 1

### Prompt Threshold query (fold change >= 0.9) on CC(C)n1ncc(NC(=O)Cn2ccc(-c3ccc(C(F)(F)F)cc3)n2)n1
### Response 1

### Prompt Say whether COc1cc(C=CC(=O)N2CCN(CC(=O)N3CCCC3)CC2)cc(OC)c1OC shows fold change of 0.9 or more.
### Response -1

### Prompt Quick check, fold change >= 0.9? CCCCC[C@H](O)/C=C/C=C\C=C\C=C\[C@@H](O)[C@@H](O)CCCC(=O)O
### Response 1

### Prompt Threshold query (fold change >= 0.9) on Nc1cc(Cl)c(NC2=NCCN2)c(Cl)c1
### Response 1

### Prompt Would you say O=C1O/C(=C/Br)CCC1c1cccc2ccccc12 (stereo not given) shows fold change at minimum 0.9?
### Response -1

### Prompt For this compound, is measured fold change 0.9 or higher? O=C(O)c1cc2cccc([N+](=O)[O-])c2[nH]1
### Response -1

* * *

assay: viability loss with induced miR-34 in A549 – imaging, A549 dox-inducible miR-34, nuclei and caspase counts, primary screen (AID 1347080); conditions: A549 miR-34 inducible, Hoechst nuclei count, 48 h; measured here: total cells without miR-34 induction
Readout kind: cell count
Number, no unit, nothing else.

// sample CCC1OC(=O)[C@H](C)C(=O)[C@H](C)[C@@H](OC2O[C@H](C)C[C@H](N(C)C)[C@H]2O)[C@](C)(OC)C[C@@H](C)C(=O)[C@H](C)[C@H]2N(CCCCn3cnc(-c4cccnc4)c3)C(=O)OC12C (some centres undefined) , its cell count was 12400

cell count measured on O=c1ncccn1C1OC(CO)C(O)C1O (centres undefined) = 9410

get_value(item= C=C1C[C@@]2(O)O[C@@]3(CC2C(C)C)C(C)CC[C@@H]13 (some centres undefined) , readout=cell count) returns 10100

Given item CCCCCCCCCCCCCCCC(=O)NCCc1ccc(O)c(O)c1 , the value recorded as its cell count is 5980

The compound listed as CCCCCCCCCCCCCCCCOC[C@H](CO)OC has a reported cell count of 5500

Sample O=C(NNc1nc2cc(F)ccc2n2cccc12)c1cnccn1 ; cell count observed: 2330

Quick note, cell count for C[C@H]1c2cccc(O)c2C(O)=C2C(=O)C3(O)C(O)=C(C(N)=O)C(=O)[C@@H](N(C)C)[C@@H]3[C@@H](O)[C@@H]21 (some centres undefined) landed at 6330

// cell count lookup, compound = CC1(C)S[C@@H]2C(NC(=O)C(C(=O)O)c3ccccc3)C(=O)N2C1C(=O)O (some centres undefined) , result: 9470

cell count measured on CC(=O)C1CC[C@H]2[C@@H]3CCC4=CC(=O)CC[C@]4(C)[C@@H]3CC[C@]12C (some centres undefined) = 8360

Notebook: C[C@@]1(c2nc3c(C(N)=O)cccc3[nH]2)CCCN1 , cell count read as 7270

cell count reported for this compound O=c1cc(-c2cccnc2)nc(-c2ccc(CN3CCCC(CO)C3)cc2)[nH]1 (centres undefined) : 8590

Just so you know, measured cell count for COC(=O)Nc1nc2ccc(SC(C)C)cc2[nH]1 came out at 1660

cell count for CC(=O)O[C@H]1C[C@@]2(C)[C@@H](C[C@@H](O)[C@H]3[C@@]4(C)CC[C@@H](O)[C@@H](C)C4CC[C@@]32C)/C1=C(\CCC=C(C)C)C(=O)O (some centres undefined) is 9410

Record O=C(C=Cc1ccc(O)c(O)c1)OCCc1ccccc1 . Reported cell count: 7300

* * *

assay: MELAS cybrid and Rieske KO viability enhancers – cell-based, MELAS cybrids, Rieske KO mouse fibroblasts, CellTiter-Glo, primary screen (AID 1508586); conditions: Rieske KO mouse fibroblast survival, low glucose, CellTiter-Glo 72 h;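 note: z relative to plate mean and SD of compound and empty wells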
Classify as follows. Reported z-score greater than or equal to -0.3: true. Reported z-score below: false.

### Prompt Confirm if z-score reported for the molecule NC(=O)N1CCC(CC(=O)N2CCC(C3c4ncc(Br)cc4CCc4cc(Cl)cc(Br)c43)CC2)CC1 (configuration not stated) is -0.3 or above.
### Response true

### Prompt Reported z-score at or above -0.3? COc1cc(CCC(C)=O)ccc1O
### Response true

### Prompt Textbook exercise: given the entry CN(C)c1cccc(NC(=O)c2cc(NCc3cnn(C)c3)cc(S(=O)(=O)N3CCCC3)c2)c1 , state whether its z-score is greater than or equal to -0.3.
### Response false

### Prompt Form field: z-score at least -0.3? Entry: COc1cccc(C(=O)N2CCN3C(=O)[C@H](C(C)C)NC(=O)[C@H]3C2)c1
### Response false

### Prompt Answer whether z-score of O=C(C=Cc1ccc(O)c(O)c1)OC1C[C@@](O)(C(=O)O)CC(O)C1O (some centres not stated) is greater than or equal to -0.3.
### Response true

### Prompt Test whether the molecule C=C1C(=O)OC2C=C(C)CCC=C(C)CCC12 (configuration not stated) records z-score of -0.3 or higher.
### Response true

### Prompt Assess whether reported z-score for Cc1cccc(-n2cnc3cc(N)ccc32)c1 sits at -0.3 or higher.
### Response true

### Prompt Reported z-score at or above -0.3? O=C(Nc1cc(Br)c(O)c(Br)c1)c1ccccc1
### Response true

### Prompt Threshold query (z-score >= -0.3) on Cc1ccc(-c2ncnc3scc(C)c23)c2cccnc12
### Response true

### Prompt Kindly determine if z-score recorded for COCC(NC(=O)c1cnc(C)s1)C(=O)NC(COC)C(=O)NC(Cc1ccccc1)C(=O)C1(C)CO1 (configuration not stated) is above or exactly -0.3.
### Response false

### Prompt Reported z-score reaches at least -0.3 for CCOC1OC(=O)CC1NC(=O)C1CCCN1C(=O)C(NC(=O)c1ccc(N)c(Cl)c1)C(C)(C)C (configuration not stated) ?
### Response true

### Prompt Can COC(=O)C1=COC(O)[C@@H]2C(CO)=CC[C@H]12 (some centres not stated) be said to have z-score at or above -0.3?
### Response false

### Prompt Form field: z-score at least -0.3? Entry: Cc1nsc(NC(=O)NCc2ccccc2-n2ccnc2C)n1
### Response true

### Prompt Check this molecule for z-score at or above -0.3: CC(C)CNC(=O)[C@@H]1C[C@H](CN2CCOCC2)CN(Cc2ccc(O)cc2)C1
### Response true

### Prompt Reported z-score reaches at least -0.3 for Cn1c(=O)cc(N2CCCC(N)C2)n(Cc2ccccc2C#N)c1=O (configuration not stated) ?
### Response true

### Prompt Record CON=C(C(=O)N[C@@H]1C(=O)N2C(C(=O)O)=C(CSC(=O)c3ccco3)CS[C@H]12)c1csc(N)n1 ; criterion: z-score no lower than -0.3. Met?
### Response true

### Prompt Test whether the molecule Cc1cc([N+](=O)[O-])ccc1NS(=O)(=O)c1cc(Cl)ccc1Cl records z-score of -0.3 or higher.
### Response false

* * *

assay: compounds altering circadian rhythm period length – cell-based, LOPAC library, luminescence reporter (AID 2774); settings: circadian reporter cells, at 7 µM, actives lie on both sides;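 note: values are relative to mean of DMSO wells on each plate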
Active and inactive are the calls of the source. No rule for the calls is given here.
Readout kind: period change

In plain terms, CCCCCCCCCCCCC/C=C/C(O)C(N)CO (centres undefined) has a documented period change of 0.015 h (inactive)

Reported period change ( COc1c2c(nc3ccccc13)OC(C(C)(O)CO)C2 (centres undefined) ) = 0.065 h (inactive)

Value of period change reported for the compound CN1CCc2cc(NC(=O)Nc3cccnc3)ccc21 is 0.02 h (inactive)

According to the records, this compound CCSC(N)=Nc1ccc(C(F)(F)F)cc1 displays period change of 0.125 h (inactive)

Value of measured period change for the entry Nc1nc(Nc2ccccc2)nc2c1ncn2[C@@H]1O[C@H](CO)[C@H](O)C1O (some centres undefined) : -0.07 h (inactive)

Form: compound = O=c1cc(O)cc(/C=C/c2ccc(O)c(O)c2)o1 ; period change = -0.02 h (inactive)

Memo: Nc1ncnc2c1ncn2C1CCCC1 , reported period change: 0.035 h (inactive)

The compound listed as CC(C)C[C@H](N)CSSC[C@@H](N)CC(C)C shows period change equal to -0.095 h (inactive)

So, CC1(C)CCC=[N+]1[O-] ? Its period change was -0.065 h (inactive)

For CCCNC[C@H](O)COc1ccccc1C(=O)CCc1ccccc1 the compound record lists period change as 0.08 h (inactive)

Note to self: period change recorded for O=C1CCC(c2ccc(-n3ccnc3)cc2)=NN1 was -0.075 h (inactive)

Given item CCN1C(=O)C=CC1=O , the value recorded as its period change is 0.135 h (inactive)

The measured period change associated with N=c1c[n+](N2CCOCC2)[n-]o1 reads 0.03 h (inactive)

The compound listed as CCCCN1CCC(n2c(=O)[nH]c3ccccc32)CC1 shows period change equal to -0.16 h (inactive)

The compound identified as Nc1nc2c(nc(Br)n2C2OC3COP(=O)(O)O[C@@H]3C2O)c(=O)[nH]1 (some centres undefined) registered its period change at -0.01 h (inactive)

The recorded period change for NC(N)=[N+]1CCc2ccccc2C1 is -0.15 h (inactive)

Entry under test: C=C1C(=O)O[C@@H]2[C@H]3O[C@]3(C)CCC=C(C)CC[C@@H]12 . Its period change was -0.22 h (inactive)

period change for CCC1(O)CC2CN(CCc3c([nH]c4ccccc34)[C@@](C(=O)OC)(c3cc4c(cc3OC)N(C)C3[C@]45CCN4CC=C[C@@](CC)([C@@H](OC(C)=O)[C@]3(O)C(=O)OC)[C@H]45)C2)C1 (some centres undefined) is 0.43 h (inactive)

Documented period change of NC(=NCc1ccc(Cl)c(Cl)c1)NC(=O)c1nc(Cl)c(N)nc1N : 0.175 h (inactive)

Per the record, CC(N)=NCCCC[C@@H](N)C(=O)O has period change of 0.055 h (inactive)

For this compound ( O=C(O)CCC(C(=O)O)N1C(=O)c2ccccc2C1=O (centres undefined) ), measured period change is -0.075 h (inactive)

Reported period change for NCCNC(=O)Cc1ccc(NC(=O)Cc2ccc(Nc3ncnc4c3ncn4[C@@H]3O[C@H](CO)[C@H](O)C3O)cc2)cc1 (some centres undefined) was -0.095 h (inactive)

# period change (compound: CC(C)[C@@H]1NC(=O)[C@H](CCCCN)NC(=O)[C@@H](Cc2c[nH]c3ccccc23)NC(=O)[C@H](Cc2ccc(O)cc2)NC(=O)[C@H](C)N(C)C(=O)[C@H](Cc2ccccc2)NC1=O ) is -0.2 h (inactive)

period change recorded for this compound, O=S(=O)(O)C1CCNCC1 , is 0.07 h (inactive)

CC1(NCC(O)COc2cccc3[nH]ccc23)CCC(C(C)(C)NC(=O)CBr)CC1 (centres undefined) yielded period change of -0.095 h (inactive)

Lab note: measured period change of N=C(N)SCCc1ccc(CCSC(=N)N)cc1 was -0.135 h (inactive)

compound C[N+](C)(CCCCCC[N+](C)(C)CCCN1C(=O)c2cccc3cccc(c23)C1=O)CCCN1C(=O)c2cccc3cccc(c23)C1=O , period change observed: -0.055 h (inactive)

compound CN1CC(O)C(O)C(O)C1CO (centres undefined) , period change observed: 0.06 h (inactive)

In plain terms, CC1C(=O)N(C)C(=O)c2nc[nH]c21 (centres undefined) has a documented period change of 0.13 h (inactive)

Where do the numbers come from? From PubChem BioAssay.
